- System: CP217
- Assay Details: qHTS profiling for inhibitors of Plasmodium falciparum proliferation (AID 504749); note: nearly all actives have a fitted effect of over 60% in size
- Condition Details: P. falciparum in erythrocytes, SYBR Green DNA, 72 h; series mostly up to 28.7 µM
Records with an inconclusive call do not appear. Calls of active or inactive are those of the source. Calls come from the whole dose curve; as a rule, active = well fitted inhibition curve with a large enough effect; inconclusive = small, poorly fitted or top-dose-only effect; inactive = flat fitted curve, though single readings scatter.
Classes used: active, inactive

Compound | Study System | Label
CCOC(=O)c1ccc(C#Cc2ccc3c(c2)C(C)(C)CCS3)nc1 | CP217 | inactive
COC(=O)Nc1nc2ccc(Sc3ccccc3)cc2[nH]1 | CP217 | inactive
Nc1ccc(S(=O)(=O)Nc2ccccn2)cc1 | CP217 | inactive
O=C(O)c1cc(=O)[nH]c(=O)[nH]1 | CP217 | inactive
CNS(=O)(=O)Cc1ccc2[nH]cc(CCN(C)C)c2c1 | CP217 | inactive
COc1ccc(C(=O)CC(=O)c2ccc(C(C)(C)C)cc2)cc1 | CP217 | inactive
CC1=NN(c2ccccc2)C(=O)C1 | CP217 | inactive
CCc1cc(C(N)=S)ccn1 | CP217 | inactive
COc1c(N2CCNC(C)C2)c(F)cc2c(=O)c(C(=O)O)cn(C3CC3)c12 (configuration not stated) | CP217 | inactive
CCOc1cc(N)c(Cl)cc1C(=O)NCC1CN(Cc2ccc(F)cc2)CCO1 (configuration not stated) | CP217 | active
O=P(O)(O)C(O)(Cc1cccnc1)P(=O)(O)O | CP217 | inactive
COc1ccc(-c2ccc3cc(C(=O)O)ccc3c2)cc1C12CC3CC(CC(C3)C1)C2 | CP217 | inactive
Cc1cccc(Nc2ccncc2S(=O)(=O)NC(=O)NC(C)C)c1 | CP217 | inactive
CCc1c2c(nc3ccc(OC(=O)N4CCC(N5CCCCC5)CC4)cc13)-c1cc3c(c(=O)n1C2)COC(=O)[C@]3(O)CC | CP217 | inactive
CN(CCOc1ccc(CC2SC(=O)NC2=O)cc1)c1ccccn1 (configuration not stated) | CP217 | inactive
COC(=O)Nc1nc2ccc(C(=O)c3ccccc3)cc2[nH]1 | CP217 | inactive
CC(C)NCC(O)c1ccc(NS(C)(=O)=O)cc1 (configuration not stated) | CP217 | inactive
CN1CCN(c2c(F)cc3c(=O)c(C(=O)O)cn4c3c2OCN4C)CC1 | CP217 | inactive
Nc1nc(N)c2nc(CNc3ccc(C(=O)NC(CCC(=O)O)C(=O)O)cc3)cnc2n1 (configuration not stated) | CP217 | inactive
CN(C)CCc1c[nH]c2ccc(CS(=O)(=O)N3CCCC3)cc12 | CP217 | inactive
Cn1nnc2c(C(N)=O)ncn2c1=O | CP217 | inactive
N=C(N)c1ccc(OCCCCCOc2ccc(C(=N)N)cc2)cc1 | CP217 | active
CCOCC(O)COc1ccc(NC(=O)CC[S+](C)C)cc1 (configuration not stated) | CP217 | inactive
COc1ncnc(NS(=O)(=O)c2ccc(N)cc2)c1OC | CP217 | inactive
Cc1ncc([N+](=O)[O-])n1CCO | CP217 | inactive
CC(=O)Oc1ccccc1C(=O)Nc1ncc([N+](=O)[O-])s1 | CP217 | inactive
O=S(=O)(O)CCS | CP217 | inactive
CC(C)OC(=O)C(C(=O)OC(C)C)=C1SC=CS1 | CP217 | inactive
COc1cnc(NS(=O)(=O)c2ccc(N)cc2)nc1 | CP217 | inactive
Cc1oc(=O)oc1CN1CCN(c2cc3c(cc2F)c(=O)c(C(=O)O)c2n3C(C)S2)CC1 (configuration not stated) | CP217 | active
CCn1cc(C(=O)O)c(=O)c2cc(F)c(N3CCNCC3)cc21 | CP217 | inactive
NCCCC(O)(P(=O)(O)O)P(=O)(O)O | CP217 | inactive
O=C(O)c1cn(C2CC2)c2cc(N3CCNCC3)c(F)cc2c1=O | CP217 | inactive
NC(=O)N1c2ccccc2CC(=O)c2ccccc21 | CP217 | inactive
NC(N)=NC(N)=NCCc1ccccc1 | CP217 | inactive
COc1cc(NCc2ccc3nc(N)nc(N)c3c2C)cc(OC)c1OC | CP217 | active
CCCc1nc(C)c2c(=O)[nH]c(-c3cc(S(=O)(=O)N4CCN(CC)CC4)ccc3OCC)nn12 | CP217 | inactive
CC(C)(C#N)c1cc(Cn2cncn2)cc(C(C)(C)C#N)c1 | CP217 | inactive
COc1cccc(N(C)C(=S)Oc2ccc3c(c2)CCCC3)n1 | CP217 | inactive
Cc1nnc(NS(=O)(=O)c2ccc(N)cc2)s1 | CP217 | inactive
Nc1nc(N)nc(-c2cc(Cl)ccc2Cl)n1 | CP217 | inactive
COc1nc(N)nc2c1ncn2[C@@H]1O[C@H](CO)[C@@H](O)[C@@H]1O | CP217 | inactive

----------
- Assay Details: qHTS of pediatric cancer cell lines to identify multiple opportunities for drug repurposing: Primary screen for OHS-50 cells (AID 1347103); note: nearly all actives have a fitted effect of over 40% in size
- Condition Details: OHS-50 osteosarcoma viability, CellTiter-Glo luminescence, 48 h; series mostly up to 57.3 µM
Results filed as inconclusive are left out. The source made the active and inactive calls. Calls come from the whole dose curve; as a rule, active = well fitted cell-killing curve with a large enough effect; inconclusive = small, poorly fitted or top-dose-only effect; inactive = no such curve, though single readings can be large or run the other way.
Classes used: T = active, F = inactive

Compound | Label
NC(=O)c1cccc(N)c1 | F
CCCN[C@H]1CCc2nc(N)sc2C1 | F
COc1ccc2c(c1)c(CC(=O)OCC(=O)O)c(C)n2C(=O)c1ccc(Cl)cc1 | F
Cn1nnc2c(C(N)=O)ncn2c1=O | F
Cn1c(=O)c2c(ncn2CC(O)CO)n(C)c1=O (stereo unspecified) | F
Cc1onc(-c2ccccc2Cl)c1C(=O)N[C@@H]1C(=O)N2[C@@H]1SC(C)(C)[C@@H]2C(=O)O | F
COc1ccc(C(=O)CC(=O)c2ccc(C(C)(C)C)cc2)cc1 | F
CCN(C)C(=O)Oc1cccc([C@H](C)N(C)C)c1 | F
C[C@@H]1CN(c2c(F)c(N)c3c(=O)c(C(=O)O)cn(C4CC4)c3c2F)C[C@H](C)N1 | F
OCc1ccc(-c2nn(Cc3ccccc3)c3ccccc23)o1 | T
CCOCC(O)COc1ccc(NC(=O)CC[S+](C)C)cc1 (stereo unspecified) | F
COc1cc(NCc2ccc3nc(N)nc(N)c3c2C)cc(OC)c1OC | T
CCCCCCNC(=O)n1cc(F)c(=O)[nH]c1=O | F
CNC1CCCN(c2c(F)cc3c(=O)c(C(=O)O)cn(C4CC4)c3c2OC)C1 (stereo unspecified) | F
CC(C)C1CCC(C(=O)N[C@H](Cc2ccccc2)C(=O)O)CC1 (stereo partly specified) | F
CC[C@H](NC(C)C)[C@H](O)c1ccc(O)c2[nH]c(=O)ccc12 | F
CCOC(=O)[C@H](CCc1ccccc1)N[C@H]1CCc2ccccc2N(CC(=O)O)C1=O | T
COc1ccccc1OCC(O)COC(N)=O (stereo unspecified) | F
CCn1cc(C(=O)O)c(=O)c2cc(F)c(N3CCN(C)CC3)cc21 | F
CCc1c2c(nc3ccc(OC(=O)N4CCC(N5CCCCC5)CC4)cc13)-c1cc3c(c(=O)n1C2)COC(=O)[C@]3(O)CC | T
COc1cc(NS(=O)(=O)c2ccc(N)cc2)nc(OC)n1 | F
O=NN(CCCl)C(=O)NC1CCCCC1 | F
OC(Cn1cncn1)(Cn1cncn1)c1ccc(F)cc1F | F
CS(=O)(=O)c1ccc([C@@H](O)[C@@H](CO)NC(=O)C(Cl)Cl)cc1 | F
N[C@@H](Cc1ccc(O)c(O)c1)C(=O)O | F
CC(=O)Oc1ccccc1C(=O)Nc1ncc([N+](=O)[O-])s1 | T
COC(c1ccccc1)(c1ccccc1)[C@H](Oc1nc(C)cc(C)n1)C(=O)O | F
COCCCOc1cc(C[C@@H](C[C@H](N)[C@@H](O)C[C@H](C(=O)NCC(C)(C)C(N)=O)C(C)C)C(C)C)ccc1OC | F
Cc1noc(NS(=O)(=O)c2ccc(N)cc2)c1C | F
CC(C)NCC(O)c1ccc(NS(C)(=O)=O)cc1 (stereo unspecified) | F
Cc1cccc(Nc2ccncc2S(=O)(=O)NC(=O)NC(C)C)c1 | F
Cc1ncc([N+](=O)[O-])n1CCO | F
CC(C)(C#N)c1cc(Cn2cncn2)cc(C(C)(C)C#N)c1 | F
Cc1cc(NS(=O)(=O)c2ccc(N)cc2)no1 | F
CCOC(=O)c1ccc(OC(=O)CCCCCN=C(N)N)cc1 | F
CN(CCOc1ccc(CC2SC(=O)NC2=O)cc1)c1ccccn1 (stereo unspecified) | F
O=C(O)c1cc(=O)[nH]c(=O)[nH]1 | F
CNCC[C@H](Oc1cccc2ccccc12)c1cccs1 | T
NC(=O)c1cccnc1 | F
CC1=C(C(=O)O)N2C(=O)[C@@H](NC(=O)C(N)c3ccccc3)[C@H]2SC1 (stereo partly specified) | F
CCOc1cc(N)c(Cl)cc1C(=O)NCC1CN(Cc2ccc(F)cc2)CCO1 (stereo unspecified) | F
CC(C)(C)NC(=O)[C@H]1CC[C@H]2[C@@H]3CC[C@H]4NC(=O)C=C[C@]4(C)[C@H]3CC[C@]12C | T
CCN[C@H]1C[C@H](C)S(=O)(=O)c2sc(S(N)(=O)=O)cc21 | F
CC(=O)[C@H]1CC[C@H]2[C@@H]3CCC4=CC(=O)CC[C@]4(C)[C@H]3CC[C@]12C | T
CN(C)CCc1c[nH]c2ccc(CS(=O)(=O)N3CCCC3)cc12 | F
COc1cnc(NS(=O)(=O)c2ccc(N)cc2)nc1 | F
